These entries and their values trace back to ChEMBL document CHEMBL1961873.

- test-system: Phosphatidylinositol 4-kinase beta (Homo sapiens);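 also: values are mean percent inhibition of PI4K-beta activity, averaged over replicate measurements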
- measurement-conditions: at 1 µM
Reported inhibition values are given for each entry in this list.
readout-kind: inhibition (%)

{"smiles-input": "CN(C)C(=O)O[C@@H]1CN[C@@H](C#Cc2cc3ncnc(Nc4ccc(OCc5cccc(F)c5)c(Cl)c4)c3s2)C1", "test-system": "Phosphatidylinositol 4-kinase beta (Homo sapiens)", "readout-kind": "inhibition", "unit-abbreviation": "%", "number": -0.33}
{"smiles-input": "O=C1Nc2ccccc2/C1=C/Nc1ccc2[nH]c(=O)[nH]c2c1", "test-system": "Phosphatidylinositol 4-kinase beta (Homo sapiens)", "readout-kind": "inhibition", "unit-abbreviation": "%", "number": 2.4}
{"smiles-input": "CCS(=O)(=O)c1ccc(OC)c(Nc2ncc(-c3cccc(OC)c3)o2)c1", "test-system": "Phosphatidylinositol 4-kinase beta (Homo sapiens)", "readout-kind": "inhibition", "unit-abbreviation": "%", "number": -0.15}
{"smiles-input": "CCS(=O)(=O)c1ccc(OC)c(Nc2nccc(N(C)c3ccc4c(C)n[nH]c4c3)n2)c1", "test-system": "Phosphatidylinositol 4-kinase beta (Homo sapiens)", "readout-kind": "inhibition", "unit-abbreviation": "%", "number": -1.28}
{"smiles-input": "Cc1ccc(Nc2ccnc(Nc3cccc(C(N)=O)c3)n2)cc1O", "test-system": "Phosphatidylinositol 4-kinase beta (Homo sapiens)", "readout-kind": "inhibition", "unit-abbreviation": "%", "number": 1.94}
{"smiles-input": "[O-][S+]1CCN(Cc2ccc(-c3ccc4ncnc(Nc5ccc(OCc6ccccc6)c(Cl)c5)c4c3)o2)CC1", "test-system": "Phosphatidylinositol 4-kinase beta (Homo sapiens)", "readout-kind": "inhibition", "unit-abbreviation": "%", "number": -0.85}
{"smiles-input": "Cc1cc(Cl)cc2c1NC(=O)C2=NNc1ccc(S(N)(=O)=O)cc1", "test-system": "Phosphatidylinositol 4-kinase beta (Homo sapiens)", "readout-kind": "inhibition", "unit-abbreviation": "%", "number": 3.24}
{"smiles-input": "COc1ccc(-c2nn3ncccc3c2-c2ccnc(Nc3cccc(C(F)(F)F)c3)n2)cc1", "test-system": "Phosphatidylinositol 4-kinase beta (Homo sapiens)", "readout-kind": "inhibition", "unit-abbreviation": "%", "number": -1.04}
{"smiles-input": "NC(=O)c1sc(-n2cnc3ccccc32)cc1OCc1ccccc1Br", "test-system": "Phosphatidylinositol 4-kinase beta (Homo sapiens)", "readout-kind": "inhibition", "unit-abbreviation": "%", "number": -1.28}

====

Documented inhibition across a set of molecules
- test-system: Rhodopsin kinase GRK7 (Homo sapiens) (UniProt Q8WTQ7);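 also: reported figures are mean percent inhibition of GRK7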
- Sequence (whole entry): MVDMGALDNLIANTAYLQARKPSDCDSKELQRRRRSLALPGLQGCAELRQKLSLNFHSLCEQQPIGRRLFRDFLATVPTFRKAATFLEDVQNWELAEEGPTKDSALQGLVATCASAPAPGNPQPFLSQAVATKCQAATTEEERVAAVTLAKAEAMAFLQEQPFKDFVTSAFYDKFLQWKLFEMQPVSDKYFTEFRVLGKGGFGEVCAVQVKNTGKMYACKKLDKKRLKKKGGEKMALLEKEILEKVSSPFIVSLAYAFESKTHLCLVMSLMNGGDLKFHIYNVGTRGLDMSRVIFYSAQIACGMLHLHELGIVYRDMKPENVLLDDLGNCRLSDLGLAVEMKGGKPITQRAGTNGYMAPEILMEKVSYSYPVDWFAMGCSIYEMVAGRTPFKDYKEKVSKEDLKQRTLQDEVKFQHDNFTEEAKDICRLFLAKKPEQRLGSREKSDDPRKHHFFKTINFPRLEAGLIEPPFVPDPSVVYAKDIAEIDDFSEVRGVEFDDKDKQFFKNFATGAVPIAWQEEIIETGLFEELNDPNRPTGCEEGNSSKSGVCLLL
- measurement-conditions: at 0.1 µM

{"smiles-input": "COc1ccc2ncnc(Nc3ccc(OCc4ccccc4)cc3)c2c1", "unit-abbreviation": "%", "inhibition": 2.31}
{"smiles-input": "CN(C)c1cc2c(Nc3ccc4c(cnn4Cc4ccccc4)c3)ncnc2cn1", "unit-abbreviation": "%", "inhibition": 2.54}
{"smiles-input": "CS(=O)(=O)CCNCc1nc(-c2ccc3ncnc(Nc4ccc(OCc5cccc(C(F)(F)F)c5)cc4)c3c2)cs1", "unit-abbreviation": "%", "inhibition": 3.85}
{"smiles-input": "CCn1c(-c2nonc2N)nc2c(C#CC(C)(C)O)nc(OCCNC)cc21", "unit-abbreviation": "%", "inhibition": 9.11}
{"smiles-input": "O=C(Nc1ccc(Oc2ccc3[nH]c(NC(=O)c4ccco4)nc3c2)cc1)Nc1cc(C(F)(F)F)ccc1F", "unit-abbreviation": "%", "inhibition": -0.48}
